// Particle size (nm) lookup, one value per entry
Test: Suspensions of EPC liposomes containing the derivatives of formula (I): concentration in liposomes and particle size
Assay type: physicochemical
Details: EPC liposomes containing the compound
Give just the numeric value; nm need not be written.

COMPOUND: CCC[C@@]1(C)C(=NO)CC[C@H]2[C@@H]3CC[C@H]([C@H](C)CCCC(C)C)[C@@]3(C)CC[C@@H]21
Particle size (nm): 84.7
//
COMPOUND: CC(C)CCCC(C)C1CCC2C3CCC(=NO)C(C)(CCC(C)(C)O)C3CCC12C (stereo not drawn)
Particle size (nm): 79.5
//
COMPOUND: CC(C)=CCC[C@@H](C)[C@H]1CC[C@H]2[C@@H]3CCC4=CC(=NO)CC[C@]4(C)[C@H]3CC[C@]12C
Particle size (nm): 80.7
//
COMPOUND: CC(C)CCCC(C)C1CCC2C3CCC(=NO)C(C)(CCCO)C3CCC12C (stereo not drawn)
Particle size (nm): 81.4
//
COMPOUND: CC(C)CCC[C@@H](C)[C@H]1CC[C@H]2[C@@H]3CCC4=CC(=NO)CC[C@]4(C)[C@H]3CC[C@]12C
Particle size (nm): 88.9

**Query** Give Particle size (nm) for CC(C)CCC[C@@H](C)[C@H]1CC[C@H]2[C@@H]3CCC4=C(F)C(=NO)CC[C@]4(C)[C@H]3CC[C@]12C
**Result** 79.1

---

Experiment: Maximum solubility of the compounds of formula (I) in water and different solvents
Assay type: physicochemical
Details: water; read-out: Maximum solubility (concentration)
// solubility lookup, one value per entry
Give just the numeric value; µg/mL need not be written.

COMPOUND: CC(C)CCC[C@@H](C)[C@H]1CC[C@H]2[C@@H]3CCC4=CC(=NO)CC[C@]4(C)[C@H]3CC[C@]12C [Compound 3, cholest-4-en-3-one oxime]
NUMERIC READOUT: 0.1

Switching to the query record.
**Query** Give solubility for CC(C)=CCC[C@@H](C)[C@H]1CC[C@H]2[C@@H]3CCC4=CC(=NO)CC[C@]4(C)[C@H]3CC[C@]12C [Compound 4, cholest-4,24-dien-3-one oxime]
**Result** 0.1

---

// Concentration of compound in mg/mL in the liposomes lookup, one value per entry
Test: Suspensions of EPC liposomes containing the derivatives of formula (I): concentration in liposomes and particle size
Assay type: physicochemical
Conditions: EPC liposomes, after extrusion and solvent removal
Give just the numeric value; mg/mL need not be written.

Illustrative cases are given below, each with its answer.
MOLECULE: CC(C)CCC[C@@H](C)[C@H]1CC[C@H]2[C@@H]3CCC4=CC(=NO)CC[C@]4(C)[C@H]3CC[C@]12C
NUMERIC READOUT: 12.4

MOLECULE: CC(C)CCCC(C)C1CCC2C3CCC(=NO)C(C)(CCCO)C3CCC12C (stereo not drawn)
NUMERIC READOUT: 8.1

MOLECULE: CC(C)=CCC[C@@H](C)[C@H]1CC[C@H]2[C@@H]3CCC4=CC(=O)CC[C@]4(C)[C@H]3CC[C@]12C
NUMERIC READOUT: 10.1

MOLECULE: CC(C)CCCC(C)C1CCC2C3CCC(=O)C(C)(CCCO)C3CCC12C (stereo not drawn) [Compound 8, 3-hydroxy-3,5-seco-4-norcholestan-5-one]
NUMERIC READOUT: 11.4

MOLECULE: CCC[C@@]1(C)C(=NO)CC[C@H]2[C@@H]3CC[C@H]([C@H](C)CCCC(C)C)[C@@]3(C)CC[C@@H]21
NUMERIC READOUT: 8.2

MOLECULE: CC(C)=CCC[C@@H](C)[C@H]1CC[C@H]2[C@@H]3CCC4=CC(=NO)CC[C@]4(C)[C@H]3CC[C@]12C
NUMERIC READOUT: 14.5

MOLECULE: CC(C)CCC[C@@H](C)[C@H]1CC[C@H]2[C@@H]3CCC4=C(F)C(=NO)CC[C@]4(C)[C@H]3CC[C@]12C
NUMERIC READOUT: 3.6

MOLECULE: CC(C)CCC[C@@H](C)[C@H]1CC[C@H]2[C@@H]3CCC4=CC(=O)CC[C@]4(C)[C@H]3CC[C@]12C
NUMERIC READOUT: 12.1

**Query** Give Concentration of compound in mg/mL in the liposomes for CC(C)CCCC(C)C1CCC2C3CCC(=NO)C(C)(CCC(C)(C)O)C3CCC12C (stereo not drawn)
**Result** 9.2
